biological target: T1, human complement protein C5 (human, UniProt P01031 19-1676); assay: SPR (Biacore), pH 6.0
T1 construct: Native C5 is a two-chain protein made from one precursor; also called hC5; human C5
Collected Kd values appear next to each entry.

Prompt: Please look up its Kd: CRL0483 (bispecific antibody, anti-C5 VHH / (G4S)3 / anti-albumin VHH fusion, purified by Protein A; also called CRL0483 (C5/HSA)) EVQLVESGGGLVQPGGSLRLSCAASGRTFSGILSPYAVGWFRQAPGKGLEFVSTITSGGSAIYTDSVKGRFTISRDNAKDSLYLQMNSLRAEDTAVYYCAVRTRRYGSNLGEVPQENEYGYWGQGTLVTVSSGGGGSGGGGSGGGGSEVQLLESGGGLVQPGGSLRLSCAASGFTFRSFGMSWVRQAPGKGPEWVSSISGSGSDTLYADSVKGRFTISRDNSKNTLYLQMNSLRPEDTAVYYCTIGGSLSRSSQGTLVTVSS
Response: 5.27 nM

Prompt: What value of measured Kd is listed for CRL0484 (bispecific antibody, anti-C5 VHH / (G4S)3 / anti-albumin VHH fusion, purified by Protein A; also called CRL0484 (C5/HSA)) EVQLVESGGGLVQPGGSLRLSCAASGRTFSGILSPYAVGWFRQAPGKGLEFVSTITSGGSAIYTDSVKGRFTISRDNAKDSLYLQMNSLRAEDTAVYYCAVRTRRYGSNLGEVPQENEYGYWGQGTLVTVSSGGGGSGGGGSGGGGSEVQLVESGGGLVKPGGSLRLSCAASGRPVSNYAAAWFRQAPGKEREFVSAINWQKTATYADSVKGRFTISRDNAKNSLYLQMNSLRAEDTAVYYCAAVFRVVAPKTQYDYDYWGQGTLVTVSS ?
Response: 0.556 nM

Prompt: Dear colleague, I am looking for the recorded Kd of the following binder: CRL0499 (bispecific antibody, anti-albumin VHH / (G4S)3 / anti-C5 VHH fusion, purified by Protein A; also called CRL0499 (HSA/C5)) EVQLLESGGGLVQPGGSLRLSCAASGFTFRSFGMSWVRQAPGKGPEWVSSISGSGSDTLYADSVKGRFTISRDNSKNTLYLQMNSLRPEDTAVYYCTIGGSLSRSSQGTLVTVSSGGGGSGGGGSGGGGSEVQLVESGGGLVQPGGSLRLSCAASGRAHSDYAMAWFRQAPGQEREFVAGIGWSGGDTLYADSVRGRFTNSRDNSKNTLYLQMNSLRAEDTAVYYCAARQGQYIYSSMRSDSYDYWGQGTLVTVSS
Response: 0.448 nM

Let us move to another entry and its Kd.
Prompt: Give the measured Kd of CRL0500 (bispecific antibody, anti-albumin VHH / (G4S)3 / anti-C5 VHH fusion, purified by Protein A; also called CRL0500 (HSA/C5)) EVQLVESGGGLVKPGGSLRLSCAASGRPVSNYAAAWFRQAPGKEREFVSAINWQKTATYADSVKGRFTISRDNAKNSLYLQMNSLRAEDTAVYYCAAVFRVVAPKTQYDYDYWGQGTLVTVSSGGGGSGGGGSGGGGSEVQLVESGGGLVQPGGSLRLSCAASGRAHSDYAMAWFRQAPGQEREFVAGIGWSGGDTLYADSVRGRFTNSRDNSKNTLYLQMNSLRAEDTAVYYCAARQGQYIYSSMRSDSYDYWGQGTLVTVSS .
Response: 0.189 nM
